# Lookup of reported growth keyed by entry
Test system: SNB-75 CNS
Assay: NCI-60 one-dose screen, 48 h (100 = growth as untreated, 0 = no growth, -100 = all killed)
Settings: 10 µM unless noted
This is part of a sample that, as a whole, favours compounds with a hit. Of some 83,000 tested, about 20% had one in any assay.
Write it as a number; the unit % goes unstated.

Worked cases, answers included:
O=[N+]([O-])c1ccccc1NC1c2ccccc2Oc2ccccc21 :: 69.5
CC(=O)CC/C=C(\C)[C@H](O)[C@H](C)C(=O)O[C@H]1C[C@H](C)C=C2C=C[C@@]3(C)O[C@@H](O)CC(=O)[C@]3(C)[C@H]21 :: -85.3
O=C(Nc1ccc(-n2ccc3c(NC(=O)c4ccccc4)nccc32)cc1)Nc1ccc(Cl)c(Cl)c1 :: -7.26

So what's the measured growth for this one? `CN[C@@H](CCCNC(N)=NC/C=C(/C)CCC=C(C)C)C(=O)N(C)[C@@H](CCCNC(N)=NCC=C(C)C)C(=O)N[C@H](C)[C@H](OS(=O)(=O)O)c1ccc(OS(=O)(=O)O)c(COS(=O)(=O)O)c1`
98.6
